Tested on: E31 (patient-derived glioblastoma stem cells of proneural subtype);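 note: nuclei counted by high-content imaging of Hoechst-stained cells in laminin-coated 384-well plates, relative to 0.1% DMSO vehicle wells, with staurosporine as cell-death control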
assay-comment: surviving fraction (nuclei count normalised to DMSO); higher = more cells surviving (less toxic)
settings: 12.3 nM; exposure time: 72 h
reported-property: surviving fraction
// print number alone

Recorded results for 2 molecules are shown here.
molecule	surviving fraction
CC(C)(C)C1CCN(C(=O)n2ncc(C(O)(c3ccccc3)c3ccccc3)n2)CC1	0.979
OC[C@H]1O[C@@H](Oc2ccc(O)cc2)[C@H](O)[C@@H](O)[C@@H]1O	0.846

Give recorded surviving fraction. `S=c1[nH]cnc2nc[nH]c12`
1.04

Give recorded surviving fraction. `COC(=O)Nc1nc2cc(Sc3ccccc3)ccc2[nH]1`
0.906

Give recorded surviving fraction. CCCCCCCCCCCCCCCC[N+](C)(C)CCN(Cc1ccc(OC)cc1)c1ncccn1 [Thonzonium bromide]
1.1

Give recorded surviving fraction. `CC(=O)[C@]1(O)Cc2c(O)c3c(c(O)c2[C@@H](O[C@H]2C[C@H](N)[C@H](O)[C@H](C)O2)C1)C(=O)c1ccccc1C3=O`
0.226

Give recorded surviving fraction. COC(=O)C1=C(C)NC(C)=C(C(=O)OCC(C)C)C1c1ccccc1[N+](=O)[O-] (stereo not given)
0.914

Give recorded surviving fraction. Nc1ncn(C2OC(CO)C(O)C2O)c(=O)n1 (stereo not given)
0.827

Give recorded surviving fraction. `CCn1cc(C(=O)O)c(=O)c2cc(F)c(N3CCNCC3)nc21`
1

Give recorded surviving fraction. `COC(=O)Nc1nc2cc(C(=O)c3ccccc3)ccc2[nH]1`
0.859
